# target: T1, TGFβ2 (transforming growth factor beta 2) (Homo sapiens, UniProt P61812 SEQ:1-112)
# T1 sequence: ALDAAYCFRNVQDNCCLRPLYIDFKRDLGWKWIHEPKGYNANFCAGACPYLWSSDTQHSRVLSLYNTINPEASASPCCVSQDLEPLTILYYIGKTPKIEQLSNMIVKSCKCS
# test description: cell_activity; mink lung epithelial cell proliferation; text p154 about 200 nM
# protocol conditions: chain copies: 2 (homodimer, stated)
readout type: Ki (nM)
Numeric answer only, unit nM assumed.

I am curious: what Ki value has been reported for 14i-1 (ssRNA, 2'-F C and U; 2'-OH A and G) RNA: GGGAGGACGAUGCGGAAGUAACGUUGUAGUAAAAUUCGUUCUCUCGGCAUUUGGCCAGACGACUCGCCCGA ?
230
